Experiment: InCell qHTS Assay for Inhibitors of the mTORC1 Signaling Pathway in MEF (Tsc2-/-, p53-/-) Cells: Hit Validation;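 also: phospho-S6 Ser235/236 signal normalized to propidium iodide cell count per well; nearly all actives have a fitted effect of over 75% in size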
Conditions: phospho-rpS6 immunofluorescence, 24 h; at 38.3 µM (top of the series)
Records with an inconclusive call do not appear.
measured-parameter: activity change, negative = inhibition (%)

{"compound": "O=C(CSc1cn(CC(=O)N2CCCC2)c2ccccc12)Nc1ccc(Cl)cc1", "endpoint-result": -100}
{"compound": "COc1ccc(-c2nc(C)c(CCNC(=O)c3ccccc3Br)s2)cc1OC", "endpoint-result": -100}
{"compound": "CN(Cc1ccccc1)C(=O)CSc1c2c(nc3ccc(Cl)cc13)CCCC2", "endpoint-result": -100}
{"compound": "COc1ccc(C(=O)Nc2ccc3c(c2)N(C)C(=O)c2ccccc2S3)cc1OC", "endpoint-result": -100}
{"compound": "O=C(NCc1ccc(Cl)cc1)C(=O)NCC(c1cccs1)S(=O)(=O)c1ccc(Cl)cc1 (configuration not stated)", "endpoint-result": -100}
{"compound": "COc1cc(C(=O)CC2(O)C(=O)N(Cc3ccccc3Cl)c3ccccc32)cc(OC)c1OC (configuration not stated)", "endpoint-result": -3.93}
{"compound": "Cc1nc2nncn2c(NCc2ccc(F)cc2)c1C", "endpoint-result": -100}
{"compound": "CCCN1C(=O)C(O)(CC(=O)c2ccc(CC)cc2)c2ccccc21 (configuration not stated)", "endpoint-result": -100}
{"compound": "COc1ccc2c(c1)CC(C(=O)Nc1cc(Cl)ccc1C)CO2 (configuration not stated)", "endpoint-result": -100}
{"compound": "CCC(C)n1c(SCc2c(F)cccc2Cl)nc2ccsc2c1=O (configuration not stated)", "endpoint-result": -100}
{"compound": "COc1ccccc1-c1cc(C(=O)Nc2cc(OC)c(OC)c(OC)c2)no1", "endpoint-result": 1.72}
{"compound": "COc1cccc(-n2c(-c3ccco3)nc3c(cnn3-c3ccc(C)cc3)c2=O)c1", "endpoint-result": -100}
{"compound": "Cc1cccc(-c2nc3c(cnn3-c3ccccc3)c(=O)n2-c2ccc(Br)cc2)c1", "endpoint-result": -100}
{"compound": "CCOC(=O)C1CCN(C(=O)CSc2c3c(nc4ccc(Cl)cc24)CCCC3)CC1", "endpoint-result": -100}
{"compound": "COc1ccc(-c2nc(S(=O)(=O)c3ccc(Cl)cc3)c(N3CCCCCC3)o2)cc1", "endpoint-result": -100}
{"compound": "COc1cccc(C(=O)CC2(O)C(=O)N(Cc3ccccc3)c3ccccc32)c1 (configuration not stated)", "endpoint-result": -100}
{"compound": "Cc1cc(OCC(=O)Nc2cc(-c3nc4ccccc4[nH]3)ccc2C)ccc1Cl", "endpoint-result": -100}
{"compound": "O=C(CCCn1ccc2cc(S(=O)(=O)N3CCCC3)ccc21)NCc1ccc(Cl)cc1", "endpoint-result": -100}
{"compound": "COC(=O)c1cc2sc(C)cc2n1Cc1ccccc1", "endpoint-result": -100}
{"compound": "CCCn1c2ccc(C)cc2c2nnc(SCCN3CCCCC3)nc21", "endpoint-result": -100}
{"compound": "Cc1ccc([C@H]2Nc3ccc(S(=O)(=O)Nc4cccc(Cl)c4C)cc3[C@H]3C=CC[C@H]32)cc1", "endpoint-result": -100}
{"compound": "COc1cc(C2CC(=O)Nc3cc4c(cc32)OCCO4)cc(Br)c1OC (configuration not stated)", "endpoint-result": -100}
{"compound": "O=C(NCc1ccccc1Cl)C(=O)NCC(c1cccs1)S(=O)(=O)c1cccs1 (configuration not stated)", "endpoint-result": -100}
{"compound": "Cc1c(C(=O)OC2CCCCC2)[nH]c2c1C(=O)CC(c1ccccc1Cl)C2 (configuration not stated)", "endpoint-result": -100}
{"compound": "CN(CCCNC(=O)c1cc2c(Cl)nc3ccccc3c2s1)Cc1ccccc1", "endpoint-result": -100}
{"compound": "COc1cccc(C(=O)Nc2ccc(-c3cc(C(F)(F)F)nn3-c3ccccc3)cc2)c1", "endpoint-result": -100}
{"compound": "CC1CCN(S(=O)(=O)c2ccc3nc(Nc4cccc(C(F)(F)F)c4)ccc3c2)CC1", "endpoint-result": -100}
{"compound": "CCOc1ccc(/C=C/c2nc3ccccc3n2S(=O)(=O)c2cccc(Cl)c2)cc1", "endpoint-result": -100}
{"compound": "Cc1ccc(C(=O)c2cn(CC(=O)NCc3ccccc3Cl)c3nc(C)ccc3c2=O)cc1", "endpoint-result": -100}
{"compound": "Cc1ccc(Nc2nc(C(N)=O)c(NC(=O)c3ccccc3Br)s2)cc1", "endpoint-result": -17.8}
{"compound": "CC(C)OCc1cc(CN2CCN(c3cccc(C(F)(F)F)c3)CC2)c(O)c2ncccc12", "endpoint-result": -100}
{"compound": "COc1cc(NC(=O)CSc2ccc(-c3ccccn3)nn2)cc(OC)c1", "endpoint-result": -100}
{"compound": "COc1ccc(-c2ccc(CCC(=O)O)n2-c2ccccc2O)cc1", "endpoint-result": -7.96}
{"compound": "Cc1c(Cl)cccc1NC(=O)c1oc2ccc(S(=O)(=O)N3CCC4(CC3)OCCO4)cc2c1C", "endpoint-result": -22.5}
{"compound": "COc1cc(-c2ccno2)ccc1S(=O)(=O)N1CCN(c2cc(C)ccc2C)CC1", "endpoint-result": -100}
{"compound": "Cn1nnnc1SCCCNCc1ccccc1OCc1ccc(Cl)cc1", "endpoint-result": -12.8}
{"compound": "CCc1ccc(OCC(=O)Nc2ccc3oc(-c4ccc(OC)cc4)nc3c2)cc1", "endpoint-result": -100}
{"compound": "COc1cc(O)ccc1-c1nc2ccc(Br)cn2c1Nc1ccccc1C", "endpoint-result": -100}
{"compound": "CCNS(=O)(=O)c1cc(-c2nnc(Nc3cccc(C(F)(F)F)c3)c3ccccc23)ccc1C", "endpoint-result": -100}
{"compound": "O=c1c(-c2cc(-c3ccc(F)cc3)nc3c2COc2ccc(Cl)cc2-3)coc2ccc(F)cc12", "endpoint-result": -100}
{"compound": "Cc1cccc(NC(=O)c2c(N)sc3c2CCC(C)C3)c1 (configuration not stated)", "endpoint-result": -100}
{"compound": "Cn1nc(-c2ccc(OCC(=O)Nc3ccc(Cl)cc3)cc2)c2ccccc2c1=O", "endpoint-result": -100}

---

Test: InCell qHTS Assay for Inhibitors of the mTORC1 Signaling Pathway in MEF (Tsc2-/-, p53-/-) Cells: Hit Validation;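 also: phospho-S6 Ser235/236 signal normalized to propidium iodide cell count per well; nearly all actives have a fitted effect of over 75% in size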
Conditions: phospho-rpS6 immunofluorescence, 24 h; at 38.3 µM (top of the series)
Results filed as inconclusive are left out.
measured-parameter: activity change, negative = inhibition (%)

{"compound": "CC1C(=O)Nc2ccc(S(=O)(=O)Nc3ccccc3Br)cc2NC1=O (stereo not given)", "endpoint-result": -100}
{"compound": "CN(C)c1ccc(Nc2nc3ccccc3n3nnnc23)cc1", "endpoint-result": -0.0295}
{"compound": "COc1ccc(CCCc2nnc(SCC(=O)Nc3ccc(OC)cc3)o2)cc1", "endpoint-result": -100}
{"compound": "COC(=O)c1ccccc1NC(=O)Cn1c(=O)n(-c2ccc(C)cc2)c(=O)c2ccccc21", "endpoint-result": -18.6}
{"compound": "CCc1ccc(-c2nc(CSCC(=O)NCc3ccc(C)cc3)c(C)o2)cc1", "endpoint-result": -100}

---

Test: InCell qHTS Assay for Inhibitors of the mTORC1 Signaling Pathway in MEF (Tsc2-/-, p53-/-) Cells: Hit Validation;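 also: phospho-S6 Ser235/236 signal normalized to propidium iodide cell count per well; nearly all actives have a fitted effect of over 75% in size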; also: potency is read from the fitted curve at half-maximal effect
Settings: phospho-rpS6 immunofluorescence, 24 h
Description: The mammalian target of rapamycin (mTOR) is an intracellular serine/threonine kinase Aberrant regulation of mTOR signaling plays a causative role in a number of human diseases, including cancer, benign tumors such as lymphangioleiomyomatosis (LAM) and Tuberous Sclerosis Complex (TSC), and metabolic diseases such as diabetes and obesity. This project aims to identify inhibitors of ribosomal protein S6 (rpS6) phosphorylation. The phosphorylation of rpS6 is a key event downstream of mTOR activation. […]
Records with an inconclusive call do not appear. Activity calls are given as the source filed them. The call rests on the fitted dose curve; in most records, active means well fitted inhibition curve with a large enough effect; inconclusive means small, poorly fitted or top-dose-only effect; inactive means no such curve, though single readings can be large or run the other way.

{"cpd-smiles": "Cc1ccc(C)c(NC(=O)c2nc(S(=O)(=O)Cc3ccc(F)cc3)ncc2Cl)c1", "Potency": "3.29 µM (active)"}
{"cpd-smiles": "CCN(c1ccccc1)S(=O)(=O)c1ccc(NC(=O)c2nc(S(C)(=O)=O)ncc2Cl)cc1", "Potency": "3.69 µM (active)"}
{"cpd-smiles": "COc1ccc(N(Cc2ccccc2)C(=O)c2nc(S(C)(=O)=O)ncc2Cl)cc1", "Potency": "3.69 µM (active)"}
{"cpd-smiles": "CCS(=O)(=O)c1ncc(Cl)c(C(=O)Nc2ccc(S(=O)(=O)N(C)c3ccccc3)cc2)n1", "Potency": "1.85 µM (active)"}
{"cpd-smiles": "CCS(=O)(=O)c1ncc(Cl)c(C(=O)N2CCN(c3ccc(OC)cc3)CC2)n1", "Potency": "4.65 µM (active)"}
{"cpd-smiles": "CCCCS(=O)(=O)c1nc(-c2ccc(Br)cc2)cc(-c2ccccc2)c1C#N", "Potency": "16.5 µM (active)"}
{"cpd-smiles": "O=C(NCc1ccccc1)c1nc(S(=O)(=O)Cc2ccccc2)ncc1Cl", "Potency": "5.85 µM (active)"}
{"cpd-smiles": "CCOc1ccc(NC(=O)CSc2oc(-c3ccc(F)cc3)nc2S(=O)(=O)c2ccc(C)cc2)cc1", "Potency": "4.65 µM (active)"}
{"cpd-smiles": "Cc1ccccc1CS(=O)(=O)c1ncc(Cl)c(C(=O)Nc2nnc(C(C)C)s2)n1", "Potency": "18.5 µM (active)"}
